Target: human recombinant MAO-A (Homo sapiens)
Sequence (P21397 whole entry): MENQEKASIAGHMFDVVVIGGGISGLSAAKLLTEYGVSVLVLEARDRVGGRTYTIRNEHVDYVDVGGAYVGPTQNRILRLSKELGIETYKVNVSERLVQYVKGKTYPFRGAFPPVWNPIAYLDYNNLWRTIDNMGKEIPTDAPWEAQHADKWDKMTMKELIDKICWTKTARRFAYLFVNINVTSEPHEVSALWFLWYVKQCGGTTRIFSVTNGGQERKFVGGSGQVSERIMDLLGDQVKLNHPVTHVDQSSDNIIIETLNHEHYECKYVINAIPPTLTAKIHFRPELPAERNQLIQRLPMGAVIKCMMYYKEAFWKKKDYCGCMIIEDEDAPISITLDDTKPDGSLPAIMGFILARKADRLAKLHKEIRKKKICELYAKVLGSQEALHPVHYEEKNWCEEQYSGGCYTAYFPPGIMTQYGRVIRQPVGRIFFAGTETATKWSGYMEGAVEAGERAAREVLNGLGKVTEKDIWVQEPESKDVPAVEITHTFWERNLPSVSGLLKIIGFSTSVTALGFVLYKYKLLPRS
Assay: Inhibition of monoamine oxidase A
Format: biochemical
Details: read-out: MAO-A % Inhibition at 10 µM
Assay Metric: inhibition at 10 µM (%)
Answer in %, number only, no unit symbol.

QUERY: Find inhibition at 10 µM (human recombinant MAO-A (Homo sapiens)) for the entry O=C(NCCN1CCCC1)c1nc2ccc(OCCCNCCN3CCCC3)cc2s1
RESULT: 29

QUERY: O=C(c1nc2ccc(OCCCCCN3CCCCC3)cc2s1)N1CCCCC1 ?
RESULT: 37

QUERY: O=C(c1nc2ccc(OCCCCN3CCCCC3)cc2s1)N1CCCCC1 ?
RESULT: 29

QUERY: O=C(c1nc2ccc(OCCCCCN3CCCC3)cc2s1)N1CCCC1 ?
RESULT: 45

QUERY: O=C(NC1CCCC1)c1nc2ccc(OCCCCCNC3CCCC3)cc2s1 ?
RESULT: 39

QUERY: O=C(c1nc2ccc(OCCCN3CCCCC3)cc2s1)N1CCCCC1 ?
RESULT: 33
